- TARGET_UNDER_TEST: Gastrin Receptor (Cavia porcellus)
- Construct: The washed guinea pig gastric glands prepared as above were resuspended; from tissue; host or cells: guinea pig gastric mucosal glands (intact glands after collagenase)
- Sequence (H0VZC5 1-426): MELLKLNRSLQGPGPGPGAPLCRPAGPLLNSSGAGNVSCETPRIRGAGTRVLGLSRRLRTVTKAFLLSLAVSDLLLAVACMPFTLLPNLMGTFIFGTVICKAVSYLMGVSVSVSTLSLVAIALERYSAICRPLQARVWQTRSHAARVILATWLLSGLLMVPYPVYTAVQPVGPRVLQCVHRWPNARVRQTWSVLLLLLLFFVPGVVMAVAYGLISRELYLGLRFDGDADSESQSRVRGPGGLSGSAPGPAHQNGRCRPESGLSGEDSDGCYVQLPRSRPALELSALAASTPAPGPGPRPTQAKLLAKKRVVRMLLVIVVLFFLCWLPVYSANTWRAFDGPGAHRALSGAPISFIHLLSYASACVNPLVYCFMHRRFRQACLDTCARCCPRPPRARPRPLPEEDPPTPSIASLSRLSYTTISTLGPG
- TEST_NAME: Gastrin Receptor Binding in Guinea Pig Gastric Glands (125I-gastrin)
- CONDITION_SET: guinea pig gastric glands, 125I-gastrin, 25°C 30 minutes; read-out: IC50(µM) 125I-Gastrin Gastric Glands
MEASUREMENT_KIND: IC50 (µM)
Numbers only, in µM.

Gastrin Receptor (Cavia porcellus) data for CN1C(=O)C(NC(=O)Nc2ccc3c(c2)CCC3)N=C(c2ccccc2)c2ccccc21 (racemic) ; its IC50: 0.0019
